Run parameters: 305.15 K; 101.33 kPa; Liquid
± gives the expanded uncertainty stated by the source.
Catalogue of mass density readings, one per entry.
Answer shape: numeric part, then the unit.

The examples below pair each entry with its known result.
- Chemical smiles: "[2H]C([2H])([2H])[N+](=O)[O-]"
  Quantity name: "mass density"
  Assay value: "1178.3 ± 1.6 kg/m3"
- Chemical smiles: "CCCCCO"
  Quantity name: "mass density"
  Assay value: "805.78 ± 1.7 kg/m3"
- Chemical smiles: "C[N+](=O)[O-]"
  Quantity name: "mass density"
  Assay value: "1120.82 ± 1.3 kg/m3"

Moving on to another compound below.
Given the entry [2H]OCCCCC , report its measured mass density.
813.1 ± 1.7 kg/m3

###

Run parameters: 295.15 K; 101.33 kPa; Liquid; acoustic time of flight gauge
speed of sound for assorted molecules
I only need the number, in m/s, no unit after it.

Previously resolved entries follow.
- Molecule: "CCCCCO [pentan-1-ol]"
  Quantity name: "speed of sound"
  Units label: "m/s"
  Assay value: 1282.1
- Molecule: "[2H]OCCCCC [pentan-1-ol-d]"
  Quantity name: "speed of sound"
  Units label: "m/s"
  Assay value: 1273.7
- Molecule: "[2H]C([2H])([2H])[N+](=O)[O-] [deuteronitromethane]"
  Quantity name: "speed of sound"
  Units label: "m/s"
  Assay value: 1283.2

Look at this molecule and give its reported speed of sound. C[N+](=O)[O-] [nitromethane]
1329.5

###

Run parameters: 293.15 K; 101.33 kPa; Liquid; acoustic time of flight gauge
Listed next: entries and their corresponding speed of sound.
Entry rule: numbers only, all in m/s.

- Chemical smiles: "[2H]C([2H])([2H])[N+](=O)[O-]"
  speed of sound (m/s): 1291.1

Please look up its speed of sound: [2H]OCCCCC
1282.3

How about CCCCCO ?
1290.7

Do the same for C[N+](=O)[O-] please
1337.6

###

Run parameters: 295.15 K; 101.33 kPa; Liquid
Quantity name: mass density (kg/m3)
Give the value in kg/m3 but do not write kg/m3 after it.

- Chemical smiles: "C[N+](=O)[O-]"
  Units label: "kg/m3"
  mass density: 1133.14

Item under review: CCCCCO . Reported mass density?
812.74

Also [2H]OCCCCC ?
819.5

Similarly, [2H]C([2H])([2H])[N+](=O)[O-] ?
1190.43

###

Run parameters: 298.15 K; 101.33 kPa; Liquid
Each entry below carries its recorded mass density.
# unit: kg/m3 | format: bare number

Solved entries (count: 3):
- Chemical smiles: "[2H]OCCCCC"
  mass density, kg/m3: 818.04
- Chemical smiles: "[2H]C([2H])([2H])[N+](=O)[O-]"
  mass density, kg/m3: 1187.71
- Chemical smiles: "CCCCCO"
  mass density, kg/m3: 811.4

Could you now consider this next compound?
Can you look up the measured mass density of C[N+](=O)[O-] for me?
1130.42

###

Run parameters: 308.15 K; 101.33 kPa; Liquid; acoustic time of flight gauge
Quantity name: speed of sound (m/s)
Value expressed in m/s; do not type the unit.

What measured speed of sound goes with C[N+](=O)[O-] [nitromethane] ?
1277.1
